system: 201T; test: relative viability (nuclei count vs DMSO), 5 days (fraction); higher = more cells survive; conditions: first compound 0.1265 µM
For each record, check the reported relative viability: if it is below 0.9 write fulfilled, else write not fulfilled.

Solved cases (4 shown):
{"molecule": "O=C(O)c1ccc(-c2c[nH]c3ncc(-c4ccccc4)cc23)cc1C1CCCC1 + N=C(N)NC(=N)NCCc1ccccc1 [Phenformin] (partner 250 µM)", "assigned_category": "fulfilled"}
{"molecule": "O=C(O)c1ccc(-c2c[nH]c3ncc(-c4ccccc4)cc23)cc1C1CCCC1 + CC1(C)CCC(c2ccc(Cl)cc2)=C(CN2CCN(c3ccc(C(=O)NS(=O)(=O)c4ccc(N[C@H](CCN5CCOCC5)CSc5ccccc5)c(S(=O)(=O)C(F)(F)F)c4)cc3)CC2)C1 [Navitoclax] (partner 0.5 µM)", "assigned_category": "not fulfilled"}
{"molecule": "O=C(O)c1ccc(-c2c[nH]c3ncc(-c4ccccc4)cc23)cc1C1CCCC1 + C[C@@H](Oc1cc(-c2cnn(C3CCNCC3)c2)cnc1N)c1c(Cl)ccc(F)c1Cl [Crizotinib] (partner 1 µM)", "assigned_category": "not fulfilled"}
{"molecule": "O=C(O)c1ccc(-c2c[nH]c3ncc(-c4ccccc4)cc23)cc1C1CCCC1 + O=C(c1cc(Cc2n[nH]c(=O)c3ccccc23)ccc1F)N1CCN(C(=O)C2CC2)CC1 [Olaparib] (partner 8 µM)", "assigned_category": "fulfilled"}

--- query ---
Q: For this molecule, is relative viability lower than 0.9? O=C(O)c1ccc(-c2c[nH]c3ncc(-c4ccccc4)cc23)cc1C1CCCC1 + CC(=O)c1c(C)c2cnc(Nc3ccc(N4CCNCC4)cn3)nc2n(C2CCCC2)c1=O [Palbociclib] (partner 0.5 µM)
A: fulfilled

====

tested on: NCI-H2405; experiment: relative viability (nuclei count vs DMSO), 5 days (fraction); higher = more cells survive; settings: first compound 0.01 µM
readout_type: relative viability
Provide a numeric answer; units are not to be included.

{"molecule": "NC(=O)Nc1cc(-c2cccc(F)c2)sc1C(=O)N[C@H]1CCCNC1 [AZD7762] + Nc1nc2[nH]cc(CCc3ccc(C(=O)N[C@@H](CCC(=O)O)C(=O)O)cc3)c2c(=O)[nH]1 [Pemetrexed] (partner 0.2 µM)", "relative viability": 0.998}

Q: Provide measured relative viability value, entry: NC(=O)Nc1cc(-c2cccc(F)c2)sc1C(=O)N[C@H]1CCCNC1 [AZD7762] + CC(C)C[C@H](NC(=O)[C@H](Cc1ccccc1)NC(=O)c1cnccn1)B(O)O [Bortezomib] (partner 0.002 µM)
A: 0.933

====

Catalogue of relative viability values
test system: NCI-H3122; assay: relative viability (nuclei count vs DMSO), 5 days (fraction); higher = more cells survive; conditions: first compound 0.253 µM
// no unit string in output, number only

{"compound": "C=C1C(=O)O[C@@H](CCCCCCCC)[C@@H]1C(=O)O [C-75] + CC(C)C[C@H](NC(=O)[C@H](Cc1ccccc1)NC(=O)c1cnccn1)B(O)O [Bortezomib] (partner 0.002 µM)", "relative viability": 0.987}
{"compound": "C=C1C(=O)O[C@@H](CCCCCCCC)[C@@H]1C(=O)O [C-75] + COc1cc2c(Oc3ccc(NC(=O)C4(C(=O)Nc5ccc(F)cc5)CC4)cc3F)ccnc2cc1OCCCN1CCOCC1 [Foretinib] (partner 0.25 µM)", "relative viability": 0.848}
{"compound": "Oc1nc(-c2ccc(C(F)(F)F)cc2)nc2c1CSCC2 [XAV939] + Cc1cc(Nc2cc(N3CCN(C)CC3)nc(Sc3ccc(NC(=O)C4CC4)cc3)n2)n[nH]1 [Tozasertib] (partner 0.1 µM)", "relative viability": 0.407}
{"compound": "C=C1C(=O)O[C@@H](CCCCCCCC)[C@@H]1C(=O)O [C-75] + Nc1nc2[nH]cc(CCc3ccc(C(=O)N[C@@H](CCC(=O)O)C(=O)O)cc3)c2c(=O)[nH]1 [Pemetrexed] (partner 0.2 µM)", "relative viability": 0.208}

Q: Please indicate relative viability recorded for C=C1C(=O)O[C@@H](CCCCCCCC)[C@@H]1C(=O)O [C-75] + CC(=O)c1c(C)c2cnc(Nc3ccc(N4CCNCC4)cn3)nc2n(C2CCCC2)c1=O [Palbociclib] (partner 0.5 µM)
A: 0.193
